system-name: T1, Rad9-pT peptide with SGS linker (SGS-SLEVpTEADATFYAKK) (yeast, SMILES …)
T1 construct: also called cognate pT peptide; Rad-pT
T1 peptide: Biotin-SGSSLEV[pT]EADATFYAKK-NH2
assay-procedure: phage ELISA on immobilized Rad9-pT, phage normalised to the Flag epitope; anti-M13-HRP, A405
Square brackets hold non-standard residues; d marks the D form. * marks the point of attachment. Biotin = O=C1N[C@H]2[C@H](CS[C@H]2CCCCC(=O)*)N1; pT = C[C@@H](OP(=O)(O)O)[C@H](N)C(=O)O
value-kind: binding result

[[record]]
binder = "N (designed binder, also called S34N) FHA1 domain displayed on M13 protein III: MENITQPTQQSTQATQRFLIEKFSQEQIGENIVNRVISTTGQIPIRDLSADISQVLKEKRSIKKVWTFGRNPACDYHLGNISRLSNKHFQILLGEDGNLLLNDISTNGTWLNGQKVEKNSNQLLSQGDEITVGVGVESDILSLVIFINDKFKQSLEQNKVDRIRSNLKNT"
result = "no binding"

[[record]]
binder = "T (designed binder, also called S34T) FHA1 domain displayed on M13 protein III: MENITQPTQQSTQATQRFLIEKFSQEQIGENIVTRVISTTGQIPIRDLSADISQVLKEKRSIKKVWTFGRNPACDYHLGNISRLSNKHFQILLGEDGNLLLNDISTNGTWLNGQKVEKNSNQLLSQGDEITVGVGVESDILSLVIFINDKFKQSLEQNKVDRIRSNLKNT"
result = "no binding"


The measured values listed here are drawn from patent US20130225434A1.
